biological target: Scl-70抗原 (人DNA拓扑异构酶I的C末端片段的70kD分子量蛋白) (human) (UniProt P11387); assay: chemiluminescence immunoassay on Scl-70-coated magnetic microspheres, ABEI-anti-human IgG; CHO supernatant diluted 150-fold
EXPERIMENTAL READOUT: 稀释150倍RLU (RLU)
Report as a plain number; the unit RLU is understood.

Recorded results for 3 binders are shown here.
BINDER	稀释150倍RLU / RLU
抗体5 (实施例15) (antibody, human IgG1, kappa, V domains shown) VH: EIQLVQSGSEVVRTGTSVKLSCKASGYRFTSYWMHWVKQRPGQGLEWIGNINPGDGRTNYDENFKNKATLTVDPSSNTAYMQLNSLTSEDSAVYYCTRDGNYGIFDYWGRGTSVTVSS VL: DIELTQSPSSLVVSAGEKVTLSCKSSQSLLYSSNQKNYLAWFQQKPGQSPKLLIYWASTRGSGVPDRFTGSGSRTDFTLTISSVQAEDMAVYYCHQYIYLWSFGGGTKLEIKR	89300
抗体1 (实施例11; 2D6抗体) (antibody, human IgG1, kappa, V domains shown) VH: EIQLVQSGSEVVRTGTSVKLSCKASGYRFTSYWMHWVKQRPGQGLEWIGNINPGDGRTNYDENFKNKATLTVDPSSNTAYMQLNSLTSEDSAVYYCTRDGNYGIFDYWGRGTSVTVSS VL: NIVMTQSPSSLVVSAGEKVTLSCKSSQSLLYSSNQKNYLAWFQQKPGQSPKLLIYWASTRESGVPDRFTGSGSRTDFTLTISSVQAEDMAVYYCHQYIYLWSFGGGSKLEIER	73100
抗体6 (实施例16) (antibody, human IgG1, kappa, V domains shown) VH: EVKLVESGGGLVQPGGSRKLSCAASGFTFSSYWMHWVRQAPEKGLEWVANINPGDGRTNYDENFKNRFTISRDNPENTLFLQMTSLTSEDTAIYYCARRAAYGNYDWYFDVWGAGTTVTVSS VL: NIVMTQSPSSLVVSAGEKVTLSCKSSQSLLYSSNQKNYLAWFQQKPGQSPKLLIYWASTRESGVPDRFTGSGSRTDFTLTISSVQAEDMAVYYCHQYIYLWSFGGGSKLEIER	57600

Alright, here's another binder for you.
Lab note: measured 稀释150倍RLU of 抗体4 (实施例14) (antibody, human IgG1, kappa, V domains shown) VH: EVKLVESGGGLVQPGGSRKLSCAASGFTFSSYWMHWVRQAPEKGLEWVAYISSGGITIYYADTVKGRFTISRDNPENTLFLQMTSLTSEDTAIYYCARRAAYGNYDWYFDVWGAGTTVTVSS VL: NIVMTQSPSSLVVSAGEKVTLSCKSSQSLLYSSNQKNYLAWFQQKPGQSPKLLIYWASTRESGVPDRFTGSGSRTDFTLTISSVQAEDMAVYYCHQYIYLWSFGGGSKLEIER was 124000

Values were extracted from patent CN113461822A.
